The reported numbers originate from ChEMBL document CHEMBL1130214.

Record form. Attribute: ED50. Fill in for each entry.
- System: Rattus norvegicus
- protocol text: Antagonists of apomorphine-induced aggression in male rats, administered perorally
- Assay type: functional
- conditions: Rattus norvegicus, po; read-out: ED50
Reply numerically in mg/kg, unit not repeated.

Per the reported Rattus norvegicus data, CN(c1ncnc2c1ncn2CC1CC1)C1CC1 has ED50 of 35

Per the reported Rattus norvegicus data, c1nc(NC2CC2)c2ncn(CC3CCC3)c2n1 has ED50 of 44

Per the reported Rattus norvegicus data, CN(C)c1ncnc2c1ncn2Cc1cccc(NC(=O)C(N)Cc2ccccc2)c1 (stereo not given) has ED50 of 96

Per the reported Rattus norvegicus data, CN(C)c1ncnc2c1ncn2C1CC1 has ED50 of 25

Per the reported Rattus norvegicus data, CC(C1CC1)n1cnc2c(N(C=O)C3CC3)ncnc21 (stereo not given) has ED50 of 7.5

Per the reported Rattus norvegicus data, Clc1nc(NC2CC2)c2ncn(CC3CC3)c2n1 has ED50 of 4

Per the reported Rattus norvegicus data, c1nc(NC2CC2)c2ncn(C3CC3)c2n1 has ED50 of 20

Per the reported Rattus norvegicus data, CN(C)c1ncnc2c1ncn2C1CCC1 has ED50 of 26

Per the reported Rattus norvegicus data, CC(C)Cn1cnc2c(N(C)C)ncnc21 has ED50 of 22

Per the reported Rattus norvegicus data, CN(C)c1ncnc2c1ncn2Cc1ccccc1 has ED50 of 52

* * *

Record form. Attribute: ED50. Fill in for each entry.
- Tested on: Rattus norvegicus
- protocol text: Antagonists of apomorphine-induced aggression in male rats, administered perorally
- Format: functional
- conditions: Rattus norvegicus, po; read-out: ED50
Reply numerically in mg/kg, unit not repeated.

Lab note: measured ED50 of FC(F)(F)c1nc(NC2CC2)c2ncn(CC3CC3)c2n1 was 2

Lab note: measured ED50 of CCCn1cnc2c(N(C)C)ncnc21 was 15

Lab note: measured ED50 of CN(C)c1ncnc2c1ncn2CC1CC1 was 17

Lab note: measured ED50 of c1nc(NC2CC2)c2ncn(CC3CC3)c2n1 was 12

Lab note: measured ED50 of CNc1nc(NC2CC2)c2ncn(CC3CC3)c2n1 was 12.5

Lab note: measured ED50 of O=CN(c1ncnc2c1ncn2CC1CC1)C1CC1 was 30

Lab note: measured ED50 of CN(C)c1ncnc2c1ncn2Cc1cccc(N)c1 was 58

Lab note: measured ED50 of CCCOc1nc(NC2CC2)c2ncn(CC3CC3)c2n1 was 2.5

Lab note: measured ED50 of O=CN(c1ncnc2c1ncn2C1CC1)C1CC1 was 7.4

Lab note: measured ED50 of CCOc1nc(NC2CC2)c2ncn(CC3CC3)c2n1 was 4

Lab note: measured ED50 of CC(C)n1cnc2c(N(C)C)ncnc21 was 15

Lab note: measured ED50 of CN(c1ncnc2c1ncn2C1CC1)C1CC1 was 12.5

Lab note: measured ED50 of CC(C)n1cnc2c(NC3CC3)ncnc21 was 30

* * *

- Test system: Rattus norvegicus
- protocol text: Inhibition of apomorphine-induced aggression in male rats after intraperitoneal administration of 25 mg/kg of compound
- Format: functional
- conditions: ip
Record form. Attribute: inhibition in vivo at 25 mg/kg. Fill in for each entry.

Per the reported Rattus norvegicus data, c1nc(N2CCC2)c2ncn(CC3CC3)c2n1 has inhibition in vivo at 25 mg/kg of 30%

Per the reported Rattus norvegicus data, CCN(CC)c1ncnc2c1ncn2CC1CC1 has inhibition in vivo at 25 mg/kg of 0%

Per the reported Rattus norvegicus data, c1nc(NC2CCC2)c2ncn(CC3CC3)c2n1 has inhibition in vivo at 25 mg/kg of 0%

Per the reported Rattus norvegicus data, CCCNc1ncnc2c1ncn2CC1CC1 has inhibition in vivo at 25 mg/kg of 0%
